Overview of reported Tg_72h_%Growth_Rep1 across a group of compounds:
Tested on: T. gondii RH strain (RH-Tub-eYFP) tachyzoites
Experiment: microbe, parasite or virus in culture
Type: cell-based, Toxoplasma gondii
Measured metric: Tg_72h_%Growth_Rep1 (%)

# Compound, Measured metric, Measurement
data = [
    ("COc1cc2c(c3oc(=O)c4c(c13)CCC4=O)[C@@H]1CCO[C@@H]1O2 [Aflatoxin B2]", "Tg_72h_%Growth_Rep1", 112.94),
    ("CCC[C@@H]1C[C@@H](C(=O)N[C@@H]([C@H]2O[C@H](SC)[C@H](OP(=O)(O)O)[C@@H](O)[C@H]2O)[C@H](C)Cl)N(C)C1 [Clindamycin 2-phosphate, reference compound]", "Tg_72h_%Growth_Rep1", 25.11),
    ("CO[C@H]1C[C@H](O[C@H]2[C@H](C)O[C@@H](O[C@@H]3/C(C)=C/C[C@@H]4C[C@@H](C[C@]5(C=C[C@H](C)[C@@H](C(C)C)O5)O4)OC(=O)[C@@H]4C=C(C)[C@@H](O)[C@H]5OC/C(=C\\C=C\\[C@@H]3C)[C@]54O)C[C@@H]2OC)O[C@@H](C)[C@H]1NC(C)=O [Eprinomectin B1b]", "Tg_72h_%Growth_Rep1", 157.07),
    ("COc1cc2c(c3oc(=O)c4c(c13)CCOC4=O)C1C=COC1O2 (stereo not shown) [Aflatoxin G1]", "Tg_72h_%Growth_Rep1", 81.49),
]

* * *

Test system: P. falciparum 3D7 parasites
Test: P. falciparum growth inhibition assay, 2-cycle (120 h treatment), delayed-death screen and dose-response;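 further: ratio of percent growth at 72 h over growth at 120 h at 2 µg/mL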
Assay type: cell-based, Plasmodium falciparum
Structures can show the parent of a compound that is named as a salt.
Label scheme for 3) Fold change (72 h/120 h): lower than 6 is no, 6 and above is yes.

# Compound, Assigned label
data = [
    ("CCC[C@@H]1C[C@@H](C(=O)N[C@@H]([C@H]2O[C@H](SC)[C@H](OP(=O)(O)O)[C@@H](O)[C@H]2O)[C@H](C)Cl)N(C)C1 [Clindamycin 2-phosphate, reference compound]", "yes"),
    ("CS(=O)(=O)c1ccc([C@@H](O)[C@@H](CF)NC(=O)C(Cl)Cl)cc1 [Florfenicol, reference compound]", "no"),
    ("CO[C@@H]1[C@@H](OC(N)=O)[C@@H](O)[C@H](Oc2ccc3c(O)c(NC(=O)c4ccc(O)c(CC=C(C)C)c4)c(=O)oc3c2C)OC1(C)C [Novobiocin, reference compound]", "no"),
    ("CN(C)[C@H]1C(O)=C(C(N)=O)C(=O)[C@@]2(O)C(O)=C3C(=O)c4c(O)cccc4[C@@](C)(O)[C@H]3C[C@@H]12 [Epitetracycline hydrochloride]", "no"),
    ("CO[C@@H]1[C@@H](O[C@@H]2O[C@H](C)[C@@H](O[C@H]3C[C@@](C)(O)[C@@H](OC(=O)CC(C)C)[C@H](C)O3)[C@H](N(C)C)[C@H]2O)[C@@H](CC=O)C[C@@H](C)[C@@H](O)/C=C/C=C/C[C@@H](C)OC(=O)C[C@H]1OC(C)=O [Josamycin (Leucomycin A3), reference compound]", "no"),
    ("CC[C@H]1OC(=O)[C@H](C)[C@@H](O[C@H]2C[C@@](C)(OC)[C@@H](O)[C@H](C)O2)[C@H](C)[C@@H](O[C@@H]2O[C@H](C)C[C@H](N(C)C)[C@H]2O)[C@](C)(O)C[C@@H](C)/C(=N\\OCOCCOC)[C@H](C)[C@@H](O)[C@]1(C)O [Roxithromycin, reference compound]", "no"),
]
